# Test Target: 15-hydroxyprostaglandin dehydrogenase [NAD(+)] (Homo sapiens) (UniProt P15428)
# Sequence (P15428 whole entry, looked up): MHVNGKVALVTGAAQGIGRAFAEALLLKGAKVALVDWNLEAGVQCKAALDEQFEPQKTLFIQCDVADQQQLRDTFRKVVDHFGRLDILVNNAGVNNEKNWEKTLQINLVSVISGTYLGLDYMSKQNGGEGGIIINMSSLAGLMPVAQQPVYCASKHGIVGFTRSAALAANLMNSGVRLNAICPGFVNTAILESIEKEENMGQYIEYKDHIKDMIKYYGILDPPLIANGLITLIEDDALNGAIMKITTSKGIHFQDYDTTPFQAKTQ
# Assay Remarks: qHTS Assay for Inhibitors of HPGD (15-Hydroxyprostaglandin Dehydrogenase); on activity change, negative = inhibition: on the % scale 0 is the no-effect control and ±100 the full control effect
# Study Conditions: purified HPGD, NADH fluorescence kinetic, PGE2 substrate; stronger effect = lower value
Screen size: about 150,000 compounds; about 6,500 (4.3%) were called active. Roughly 12% stayed inconclusive and do not appear here. For the sample, actives were picked, then their nearest neighbours and some compounds at random.

{"columns": ["Compound", "Test Target", "Unit Info", "activity change, negative = inhibition"],
 "data": [
  ["O=C(COC(=O)c1c2c(nc3ccccc13)/C(=C\\c1cccs1)CCC2)Nc1ccccc1Cl", "15-hydroxyprostaglandin dehydrogenase [NAD(+)] (Homo sapiens) (UniProt P15428)", "%", -25.4],
  ["CCCC(NC(=O)c1ccco1)c1nc2ccccc2[nH]1 (stereo not drawn)", "15-hydroxyprostaglandin dehydrogenase [NAD(+)] (Homo sapiens) (UniProt P15428)", "%", -3.61],
  ["COCCNC(=O)COc1ccccc1C", "15-hydroxyprostaglandin dehydrogenase [NAD(+)] (Homo sapiens) (UniProt P15428)", "%", -18.6]
]}

---

Reported values of Potency for individual entries
# Test Target: 15-hydroxyprostaglandin dehydrogenase [NAD(+)] (Homo sapiens)
# Assay Remarks: qHTS Assay for Inhibitors of HPGD (15-Hydroxyprostaglandin Dehydrogenase); further: potency means the concentration at half of the fitted maximal effect
# Study Conditions: purified HPGD, NADH fluorescence kinetic, PGE2 substrate
The whole screen tested about 150,000 compounds, of which about 6,500 (4.3%) were called active. Not shown: some 12% with an inconclusive outcome. What follows is part of a selection rich in actives, with near analogues and random picks from the rest.

{"columns": ["Molecule", "Potency"],
 "data": [
  ["CCCc1cc(=O)[nH]c(SCc2cc(=O)oc3c(C)c(C)ccc23)n1", "3.55 µM (active)"],
  ["Cn1c(=O)c2c(nc(Br)n2CCSc2nc3ccccc3o2)n(C)c1=O", "31.6 µM (active)"],
  ["O=C(/C=C/c1cccc([N+](=O)[O-])c1)NCCSCc1ccco1", "25.1 µM (active)"],
  ["COc1cc(OC)cc(C(=O)NCCSCc2ccco2)c1", "20 µM (active)"],
  ["CCCc1cc(=O)[nH]c(SCc2ccc(C#N)cc2)n1", "15.8 µM (active)"],
  ["CCOc1ccc2nc(C(=O)N3CCCC(C)C3)sc2c1 (stereo unspecified)", "7.94 µM (active)"]
]}

---

# reported activity change, negative = inhibition; entries follow
# Test Target: 15-hydroxyprostaglandin dehydrogenase [NAD(+)] (Homo sapiens) (UniProt P15428)
# Assay Remarks: qHTS Assay for Inhibitors of HPGD (15-Hydroxyprostaglandin Dehydrogenase); on activity change, negative = inhibition: on the % scale 0 is the no-effect control and ±100 the full control effect
# Study Conditions: purified HPGD, NADH fluorescence kinetic, PGE2 substrate; stronger effect = lower value
About 6,500 (4.3%) of roughly 150,000 compounds were called active. Roughly 12% stayed inconclusive and do not appear here. The list comes from a sample in which actives are over-represented; it also holds close analogues and randomly drawn compounds.

{"columns": ["Molecule", "Unit Info", "activity change, negative = inhibition"],
 "data": [
  ["COc1ccc(N(C(=O)c2ccc(C)cc2)S(=O)(=O)c2cccs2)cc1", "%", -10],
  ["COc1ccc(CNC(=O)CCCn2nc(C)c([N+](=O)[O-])c2C)cc1", "%", -13.5],
  ["CCN(CC)c1ccc(C(=O)N/N=C(\\C)c2cccc(OC)c2)cc1", "%", -8.48],
  ["CCOC(=O)CSc1nnc(-c2ccncc2)o1", "%", -12.2],
  ["CCNC(=S)N(CCc1c(C)[nH]c2ccc(C)cc12)Cc1ccco1", "%", -13.1],
  ["CCc1cccc(CC)c1NC(=S)NCc1ccc2[nH]c(C)cc2c1", "%", -1.27],
  ["COc1ccc2c(c1)O[C@@H](c1ccc3c(c1)OCO3)[C@H](OC(=O)NCCc1ccc(OC)c(OC)c1)C2=O", "%", -3.81],
  ["Cn1cc(CCC(=O)NCc2ccc3c(c2)OCO3)c2ccccc21", "%", -17.1],
  ["O=C(CSc1nc2ccccc2[nH]1)Nc1nc(-c2ccccc2)c(-c2ccccc2)o1", "%", -28.7],
  ["O=C(C1CC1)N1CCN=C1SCc1ccc(Cl)cc1", "%", -17.7],
  ["O=C(O)Cc1ccc(NC(=O)c2cccs2)cc1", "%", -5.78],
  ["c1ccc2c(c1)CSc1sccc1C2=C1CCNCC1", "%", -1.18],
  ["CC(=O)N1CCN(C(=O)c2cccc(S(=O)(=O)Nc3ccc(C)cc3)c2)CC1", "%", 4.03],
  ["COc1cc(NC(=O)c2cc([N+](=O)[O-])ccc2Br)ccc1NC(=O)c1ccco1", "%", -20.2],
  ["COc1ccc(S(=O)(=O)N2CCCCC2)cc1Br", "%", -1.54],
  ["O=C1N(c2ccc(Cl)cc2)C(c2ccc(Cl)cc2)N2CCCN12 (configuration not stated)", "%", 4.12],
  ["N#Cc1ccccc1Sc1ccccc1C(=O)OCC(=O)NC1CCCCC1", "%", -19.1],
  ["O=C(O)c1cccc(N2C(=O)Nc3ccccc3N2O)c1", "%", -2.37],
  ["CCCN=C1NC(=O)C(CC(=O)NCCc2ccc(OC)c(OC)c2)S1 (configuration not stated)", "%", -5.13],
  ["NC(=O)C1CCN(C(=O)c2ccc(-c3ccccc3)cc2)CC1", "%", -4.39],
  ["CCc1ccccc1NC(=O)CN(C)C(=O)COc1ccc(C)nc1[N+](=O)[O-]", "%", -2.83],
  ["CCOC(=O)CC(NC(=O)C1c2ccccc2Oc2ccccc21)c1ccc(C)cc1 (configuration not stated)", "%", 6.16],
  ["O=C(CCc1ccccc1)Nc1nn[nH]n1", "%", -9.52],
  ["Cc1ccc(C(=O)NC(C)c2ccccc2)cc1Br (configuration not stated)", "%", -29.6],
  ["CC(NC(=O)c1ccc(Cl)cc1)C(=O)N1CCCCC1 (configuration not stated)", "%", -4.27],
  ["Cc1ccc2[nH]c(=O)c(CC=C(Cl)Cl)c(C)c2c1", "%", -6.58],
  ["C=CCn1c(CCNC(=O)c2cccs2)n[nH]c1=S", "%", -27.1],
  ["CCC1C=C(c2ccccc2)C=CN=C1N(CC)CC (configuration not stated)", "%", -4.96],
  ["CN(CC(=O)Nc1ccc(S(=O)(=O)N2CCCC2)cc1)Cc1ccc(Cl)c(Cl)c1", "%", -13.8],
  ["C=CCn1c(SCc2ccc(Cl)c(Cl)c2)nnc1C(CO)NC(=O)c1ccc(OC)cc1 (configuration not stated)", "%", -18.7],
  ["Cn1cccc1/C=N/NC(=O)c1ccc(OC(F)(F)C(F)F)cc1", "%", -5.18],
  ["COc1ccccc1N1CCN(C(=O)c2ccc(S(=O)(=O)N3CCCCC3)cc2)CC1", "%", -4.4],
  ["Cc1cc(=O)[nH]c(SCc2cccc(F)c2)n1", "%", -22.9],
  ["CC(=O)c1sc(N/N=C\\c2ccc(C)cc2)nc1C", "%", -20.1],
  ["CCc1c(C)nc(N2CCN(Cc3ccccc3)CC2)[nH]c1=O", "%", -6.13],
  ["CCOC(=O)NCc1ccc2c(c1)OCO2", "%", -9.86],
  ["CCC(C)C(=O)Nc1cc([N+](=O)[O-])ccc1Cl (configuration not stated)", "%", -1.06]
]}

---

# Test Target: 15-hydroxyprostaglandin dehydrogenase [NAD(+)] (Homo sapiens) (UniProt P15428)
# Assay Remarks: qHTS Assay for Inhibitors of HPGD (15-Hydroxyprostaglandin Dehydrogenase); on activity change, negative = inhibition: on the % scale 0 is the no-effect control and ±100 the full control effect
# Study Conditions: purified HPGD, NADH fluorescence kinetic, PGE2 substrate; stronger effect = lower value
Screen size: about 150,000 compounds; about 6,500 (4.3%) were called active. Another 12% or so got no clear call; they are omitted. The entries come from a sample that favours actives as a whole.
Decision: activity change, negative = inhibition beneath -10% gives True; activity change, negative = inhibition meeting or exceeding -10% gives False.

{"columns": ["Molecule", "Class"],
 "data": [
  ["CN(Cc1ccccc1)c1nc2c(c(=O)[nH]c(=O)n2C)n1CCSc1nc2ccccc2[nH]1", "False"],
  ["O=C(Nc1nc(-c2ccc3c(c2)OCO3)cs1)c1ccncc1", "False"],
  ["CCC(C)(C(=O)NC1CCCCC1)N(C)C(=O)c1ccc2c(c1)OCO2 (centres undefined)", "False"],
  ["COC(=O)c1ccc(COC(=O)c2c(C)nn(Cc3ccccc3Cl)c2Cl)o1", "True"],
  ["CSc1ccccc1C(=O)Nc1cccc(C(C)=O)c1", "False"],
  ["CCCCN(CC)C(=O)c1ccccc1Oc1ccccc1", "False"],
  ["C=CCNC(=O)c1cc2nc(C3CC3)cc(C(F)F)n2n1", "False"],
  ["Cc1ccc(NC(=S)NC2CCCC2)cc1", "False"],
  ["COc1ccc(C(=O)ON=C2c3ccccc3-c3ccccc32)cc1OC", "True"],
  ["CCO/N=C(/C)c1c(O)cc(-c2ccccc2)n(-c2ccccc2)c1=O", "False"],
  ["Cc1ccnc(SCCn2c(Br)nc3c2c(=O)[nH]c(=O)n3C)n1", "False"],
  ["COc1ccc(-n2nnnc2-c2nc3ccccc3s2)cc1", "True"],
  ["Cc1cccc(NC(=S)N(CCN(C)C)C(C)c2ccco2)c1 (centres undefined)", "True"],
  ["CCN(CC)C(=O)CSc1nc2ccccc2o1", "True"],
  ["Cc1ccc(NC(=O)CSCC(=O)N2CCOCC2)cc1", "False"],
  ["COC(=O)c1nc2ccccc2s1", "False"],
  ["COCCNC(=O)c1ccc(N2CCC3(CC2)OCCO3)c([N+](=O)[O-])c1", "True"],
  ["Cc1cnc(NC(=O)CSc2nnc(C)s2)s1", "False"],
  ["COC(=O)C1=C(C(=O)OC)[C@@H]2N(C)c3ccccc3[C@@]23C[C@@H](C(=O)OC)N(S(=O)(=O)c2ccc(Br)cc2)C3=N1", "False"],
  ["CCCSc1nc2[nH]ncc2c(=O)[nH]1", "True"],
  ["COC(=O)c1ccc(CSc2nc3cc(Cl)ccc3o2)cc1", "True"],
  ["CCCCC(CC(C)O)c1n[nH]c(=S)n1-c1ccccc1 (centres undefined)", "False"],
  ["O=C(Nc1ccc2c(c1)CCC2)c1cccc(S(=O)(=O)Nc2ccccc2Cl)c1", "True"],
  ["O=C(Nc1ccccc1Cc1ccccc1)c1ccc2c(c1)SC1=NS(=O)(=O)CCN12", "False"],
  ["CC(=O)Nc1ccc(S(=O)(=O)NC(C)C(=O)OCC(=O)NC2CCCC2)cc1 (centres undefined)", "False"],
  ["Cc1ccc(CN2CCN(/N=C/c3cccnc3)CC2)c(C)c1", "False"],
  ["CC[C@H](C)[C@@H](NC(=O)O[C@@H]1C(=O)c2cc(OC)ccc2O[C@H]1c1cccc(OC)c1)C(=O)OC", "True"],
  ["CCCc1cc(=O)n2[nH]c(SCc3ccccc3)nc2n1", "True"],
  ["O=C(N/N=C/c1coc2ccccc2c1=O)c1cc2ccccc2o1", "True"]
]}
